Values from the supplement of paper PMC4862054

// reported normalised viability for each item listed
tested on: DU-4475; experiment: normalised viability (% of control), CellTiter-Blue; higher = more viable cells (about 100 = DMSO control); conditions: 10 nM; incubation time: 72 h
value-type: normalised viability (%)

[[record]]
compound = "C[C@]12C=CC(=O)C=C1CC[C@@H]1[C@@H]2[C@@H](O)C[C@@]2(C)[C@H]1CC[C@]2(O)C(=O)CO [Prednisolone]"
observed = 101

[[record]]
compound = "COc1ccc(-c2cc3c(C)nc(N)nc3n([C@H]3CC[C@H](OCCO)CC3)c2=O)cn1"
observed = 103

[[record]]
compound = "O=C(Nc1c[nH]nc1-c1nc2ccc(CN3CCOCC3)cc2[nH]1)NC1CC1 [AT9283]"
observed = 97.5

[[record]]
compound = "Cc1c(CN2CCN(C(=O)[C@H](C)O)CC2)sc2c(N3CCOCC3)nc(-c3cnc(N)nc3)nc12 [GDC-0980]"
observed = 92.7


----------
// reported normalised viability for each item listed
system: DU-4475; experiment: normalised viability (% of control), CellTiter-Blue; higher = more viable cells (100 = DMSO, 0 = benzethonium chloride kill control); settings: 1 nM; incubation time: 72 h
value-type: normalised viability (%)

[[record]]
compound = "Cc1c(CN2CCN(C(=O)[C@H](C)O)CC2)sc2c(N3CCOCC3)nc(-c3cnc(N)nc3)nc12 [GDC-0980]"
value_type = "normalised viability"
result_unit = "%"
observed = 104

[[record]]
compound = "O=C(NC[C@H](O)CO)c1ccncc1Nc1ccc(I)cc1F"
value_type = "normalised viability"
result_unit = "%"
observed = 92.6

[[record]]
compound = "Cc1ccc(Nc2nccc(N(C)c3ccc4c(C)n(C)nc4c3)n2)cc1S(N)(=O)=O [Pazopanib]"
value_type = "normalised viability"
result_unit = "%"
observed = 98.9

[[record]]
compound = "O=C(CCBr)N1CCN(C(=O)CCBr)CC1 [Pipobroman]"
value_type = "normalised viability"
result_unit = "%"
observed = 111


----------
// reported normalised response for each item listed
tested on: CAL-120; test: normalised response (% of control), CellTox Green; higher = less cell death (100 = DMSO, 0 = benzethonium chloride kill control); conditions: incubation time: 72 h
value-type: normalised response (%)

[[record]]
compound = "O=C1c2c(O)ccc(O)c2C(=O)c2c(NCCNCCO)ccc(NCCNCCO)c21 [Mitoxantrone] (1000 nM)"
observed = 107

[[record]]
compound = "O=C(NC[C@H](O)CO)c1ccncc1Nc1ccc(I)cc1F [Pimasertib] (10000 nM)"
observed = 72.1

[[record]]
compound = "c1cc(CN2CCCNCCNCCCNCC2)ccc1CN1CCCNCCNCCCNCC1 [Plerixafor] (10000 nM)"
observed = 95.2

[[record]]
compound = "CCN(CC)CCNC(=O)c1c(C)[nH]c(/C=C2\\C(=O)Nc3ccc(F)cc32)c1C [Sunitinib] (100 nM)"
observed = 98.3

[[record]]
compound = "CC(=O)OC[C@H]1O[C@@H]([S-])[C@H](OC(C)=O)[C@@H](OC(C)=O)[C@@H]1OC(C)=O.CCP(CC)CC.[Au+] [Auranofin] (2500 nM)"
observed = 68.4

[[record]]
compound = "CS(=O)(=O)N1CCN(Cc2cc3nc(-c4cccc5[nH]ncc45)nc(N4CCOCC4)c3s2)CC1 [Pictilisib] (100 nM)"
observed = 102

[[record]]
compound = "CNC(=O)c1cc(Oc2ccc(NC(=O)Nc3ccc(Cl)c(C(F)(F)F)c3)cc2)ccn1 [Sorafenib] (10 nM)"
observed = 96

[[record]]
compound = "COc1cc(CCc2cc(NC(=O)c3ccc(N4CC(C)NC(C)C4)cc3)n[nH]2)cc(OC)c1 (stereo not drawn) [AZD4547] (100 nM)"
observed = 99.3

[[record]]
compound = "COc1cc(CCc2cc(NC(=O)c3ccc(N4CC(C)NC(C)C4)cc3)n[nH]2)cc(OC)c1 (stereo not drawn) [AZD4547] (1000 nM)"
observed = 89.5

[[record]]
compound = "Cc1nc(Nc2ncc(C(=O)Nc3c(C)cccc3Cl)s2)cc(N2CCN(CCO)CC2)n1 [Dasatinib] (10 nM)"
observed = 100

[[record]]
compound = "Cn1cc(CNCC2CCN(c3ncc(C(=O)NO)cn3)CC2)c2ccccc21 [Quisinostat] (1000 nM)"
observed = -15.2

[[record]]
compound = "O=C1c2c(O)ccc(O)c2C(=O)c2c(NCCNCCO)ccc(NCCNCCO)c21 [Mitoxantrone] (10 nM)"
observed = 101

[[record]]
compound = "CCC/C=C/C=C/C(=O)O[C@H]1/C(=C/C(=O)OC)C[C@H]2C[C@H]([C@@H](C)O)OC(=O)C[C@H](O)C[C@@H]3C[C@H](OC(C)=O)C(C)(C)[C@](O)(C[C@@H]4C/C(=C/C(=O)OC)C[C@H](/C=C/C(C)(C)[C@]1(O)O2)O4)O3 [Bryostatin 1] (10 nM)"
observed = 102

[[record]]
compound = "CC(C)N(CCCNC(=O)Nc1ccc(C(C)(C)C)cc1)C[C@H]1O[C@@H](n2cc(Br)c3c(N)ncnc32)[C@H](O)[C@@H]1O [SGC0946] (10000 nM)"
observed = 97.4

[[record]]
compound = "Nc1cccc2c1CN(C1CCC(=O)NC1=O)C2=O (stereo not drawn) [Lenalidomide] (10000 nM)"
observed = 97.7

[[record]]
compound = "c1cc(CN2CCCNCCNCCCNCC2)ccc1CN1CCCNCCNCCCNCC1 [Plerixafor] (100 nM)"
observed = 93.5

[[record]]
compound = "c1cc(CN2CCCNCCNCCCNCC2)ccc1CN1CCCNCCNCCCNCC1 [Plerixafor] (1000 nM)"
observed = 96.6

[[record]]
compound = "CC(C)N(CCCNC(=O)Nc1ccc(C(C)(C)C)cc1)C[C@H]1O[C@@H](n2cc(Br)c3c(N)ncnc32)[C@H](O)[C@@H]1O [SGC0946] (1000 nM)"
observed = 95.7

[[record]]
compound = "Cc1cccc(-c2nn3c(c2-c2ccnc4ccc(C(N)=O)cc24)CCC3)n1 [Galunisertib] (1000 nM)"
observed = 99.3

[[record]]
compound = "CC[C@@]1(O)C(=O)OCc2c1cc1n(c2=O)Cc2cc3c(CN(C)C)c(O)ccc3nc2-1 [Topotecan] (1000 nM)"
observed = 85

[[record]]
compound = "CNC(=O)c1cc(Oc2ccc(NC(=O)Nc3ccc(Cl)c(C(F)(F)F)c3)cc2)ccn1 [Sorafenib] (100 nM)"
observed = 99.5

[[record]]
compound = "Cc1ccc(Nc2nccc(N(C)c3ccc4c(C)n(C)nc4c3)n2)cc1S(N)(=O)=O [Pazopanib] (1000 nM)"
observed = 101

[[record]]
compound = "CCC/C=C/C=C/C(=O)O[C@H]1/C(=C/C(=O)OC)C[C@H]2C[C@H]([C@@H](C)O)OC(=O)C[C@H](O)C[C@@H]3C[C@H](OC(C)=O)C(C)(C)[C@](O)(C[C@@H]4C/C(=C/C(=O)OC)C[C@H](/C=C/C(C)(C)[C@]1(O)O2)O4)O3 [Bryostatin 1] (1 nM)"
observed = 103

[[record]]
compound = "CCCCC/C=C/C=C1/C(=O)C=C[C@@H]1C/C=C\\CCCC(=O)O [15D-PGJ2] (8 nM)"
observed = 99.3

[[record]]
compound = "O=S(=O)(c1cccc2cnccc12)N1CCCNCC1 [Fasudil] (500 nM)"
observed = 100

[[record]]
compound = "Nc1ccccc1NC(=O)c1ccc(CNc2nccc(-c3cccnc3)n2)cc1 [Mocetinostat] (10000 nM)"
observed = 17.4

[[record]]
compound = "Cc1c(CN2CCN(C(=O)[C@H](C)O)CC2)sc2c(N3CCOCC3)nc(-c3cnc(N)nc3)nc12 [GDC-0980] (1000 nM)"
observed = 103

[[record]]
compound = "O=C(Nc1c[nH]nc1-c1nc2ccc(CN3CCOCC3)cc2[nH]1)NC1CC1 [AT9283] (10 nM)"
observed = 97.7

